Where do the numbers come from? From patent US8338565B2.

# ASSAYED_TARGET: TNFα / TNFα receptor (TNFα R1/Fc) (Homo sapiens, UniProt P01375)
# Construct: purchased R&D Systems
# Sequence (P01375 77-233 limits assumed, species assumed): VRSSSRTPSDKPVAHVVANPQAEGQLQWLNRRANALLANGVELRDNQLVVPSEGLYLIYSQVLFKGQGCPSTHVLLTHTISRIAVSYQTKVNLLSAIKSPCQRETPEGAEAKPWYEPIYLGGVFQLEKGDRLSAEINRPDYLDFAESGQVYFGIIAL
# PROCEDURE_SUMMARY: Inhibition of binding of TNFα to the TNFα receptor (plate ELISA competition)
# REPORTED_CONDITIONS: Table 2; read-out: Activity (IC50, inhibition of TNFα binding to TNFα R1/Fc)
Numbered stars: 1 amine (or outer) side, 2 acyl side, 3 side chain; on linkers, the order of the positions; unused ones are H or OH. Bridge positions count the residues as written; N and C are the ends. Square brackets hold non-standard residues; d marks the D form. Peptide text beside a SMILES is read from it. Tartaroyl(2R,3R-(OAc)2) = CC(=O)O[C@@H](C(=O)[*:1])[C@@H](OC(C)=O)C(=O)[*:2]; Bip = N[C@@H](Cc1ccc(-c2ccccc2)cc1)C(=O)O; dBip = N[C@H](Cc1ccc(-c2ccccc2)cc1)C(=O)O; dPhe(4-NH2) = Nc1ccc(C[C@@H](N)C(=O)O)cc1; Phe(4-Br) = N[C@@H](Cc1ccc(Br)cc1)C(=O)O; Phe(4-NH2) = Nc1ccc(C[C@H](N)C(=O)O)cc1; d(hPhe) = N[C@H](CCc1ccccc1)C(=O)O; 2Thi = N[C@@H](Cc1cccs1)C(=O)O; d2Thi = N[C@H](Cc1cccs1)C(=O)O; d3Thi = N[C@H](Cc1ccsc1)C(=O)O; Suc = O=C(CCC(=O)[*:2])[*:1]; Aib = CC(C)(N)C(=O)O
Parameter: IC50. Scope: all listed entries.

MOLECULE	IC50
CC(=O)O[C@H]1C(=O)Nc2ccc(cc2)C[C@H](C(=O)O)NC(=O)[C@@H](Cc2ccccc2)NC(=O)[C@H](Cc2ccc(Br)cc2)NC(=O)[C@@H](Cc2cccs2)NC(=O)[C@@H]1OC(C)=O [Compound 232] ([d2Thi][Phe(4-Br)][dF][dPhe(4-NH2)]-OH; linker N-4 via Tartaroyl(2R,3R-(OAc)2))	> 100 µM
CC(=O)O[C@H]1C(=O)Nc2ccc(cc2)C[C@@H](C(=O)N[C@@H](Cc2ccccc2)C(=O)O)NC(=O)[C@H](Cc2ccccc2)NC(=O)[C@@H](Cc2ccc(-c3ccccc3)cc2)NC(=O)[C@H](Cc2cccs2)NC(=O)[C@@H]1OC(C)=O [Compound 414] ([2Thi][dBip]F[Phe(4-NH2)]F-OH; linker N-4 via Tartaroyl(2R,3R-(OAc)2))	> 100 µM
NCCCC(=O)N[C@@H]1CC(=O)N[C@H](Cc2cccs2)C(=O)N[C@@H](Cc2ccc(-c3ccccc3)cc2)C(=O)N[C@H](Cc2ccccc2)C(=O)N[C@H](C(=O)O)Cc2ccc(cc2)NC1=O [Compound 382]	< 10 µM
O=C1COc2ccc(cc2)C[C@@H](C(=O)O)NC(=O)[C@H](Cc2ccccc2)NC(=O)[C@H](Cc2ccc(-c3ccc(C(=O)OCc4ccccc4)cc3)cc2)NC(=O)[C@H](Cc2cccs2)N1 [Compound 396]	< 10 µM
O=C1COc2ccc(cc2)C[C@@H](C(=O)O)NC(=O)[C@H](Cc2ccc(-c3ccccn3)cc2)NC(=O)[C@@H](Cc2ccc(-c3ccccc3)cc2)NC(=O)[C@H](Cc2ccncc2)N1 [Compound 643]	< 10 µM
O=C1CCC(=O)N[C@H](Cc2cccs2)C(=O)N[C@@H](Cc2ccc(-c3ccccc3)cc2)C(=O)N[C@H](Cc2ccsc2)C(=O)N[C@H](C(=O)O)Cc2ccc(cc2)N1 [Compound 75] ([d2Thi][Bip][d3Thi][Phe(4-NH2)]-OH; linker N-4 via Suc)	30 to 100 µM
CC(=O)O[C@H]1C(=O)Nc2ccc(cc2)C[C@H](C(=O)O)NC(=O)[C@@H](CCc2ccccc2)NC(=O)[C@H](Cc2ccc(Br)cc2)NC(=O)[C@@H](Cc2ccccc2)NC(=O)[C@@H]1OC(C)=O [Compound 218] ([dF][Phe(4-Br)][d(hPhe)][dPhe(4-NH2)]-OH; linker N-4 via Tartaroyl(2R,3R-(OAc)2))	10 to 30 µM
CC(C)(NC(=O)[C@@H]1Cc2ccc(cc2)NC(=O)CCC(=O)N[C@H](Cc2cccs2)C(=O)N[C@@H](Cc2ccc(-c3ccccc3)cc2)C(=O)N[C@H](CCc2ccccc2)C(=O)N1)C(=O)O [Compound 452] ([d2Thi][Bip][d(hPhe)][Phe(4-NH2)][Aib]-OH; linker N-4 via Suc)	> 100 µM

====

# ASSAYED_TARGET: TNFα / TNFα receptor (TNFα R1/Fc) (Homo sapiens, UniProt P01375)
# Construct: purchased R&D Systems
# PROCEDURE_SUMMARY: Inhibition of binding of TNFα to the TNFα receptor (plate ELISA competition)
# REPORTED_CONDITIONS: Table 2; read-out: Activity (IC50, inhibition of TNFα binding to TNFα R1/Fc)
# Protocol: The compounds listed in Table 2 below were assayed for ability to inhibit binding of TNFα to the TNFα receptor (TNFα R1/Fc). The assays were performed as described in the following procedure: TNFα (R&D Systems) was coated on high binding plate wells (Corning 96-well) at a single uniform concentration of 15 nM, 100 μL/well in PBS. […] The TMB reaction was stopped with the addition of 0.5N HCl and then the plate was read for absorbance at 450 nm.
pIC50: −log10 of the molar value. Numbered stars: 1 amine (or outer) side, 2 acyl side, 3 side chain; on linkers, the order of the positions; unused ones are H or OH. Bridge positions count the residues as written; N and C are the ends. Square brackets hold non-standard residues; d marks the D form. Peptide text beside a SMILES is read from it. Phe(4-COOH) = N[C@@H](Cc1ccc(C(=O)O)cc1)C(=O)O; Bip = N[C@@H](Cc1ccc(-c2ccccc2)cc1)C(=O)O; Phe(4-NH2) = Nc1ccc(C[C@H](N)C(=O)O)cc1; d(hPhe) = N[C@H](CCc1ccccc1)C(=O)O; d2Thi = N[C@H](Cc1cccs1)C(=O)O; Suc = O=C(CCC(=O)[*:2])[*:1]; Dap = NC[C@H](N)C(=O)O
Parameter: pIC50. Scope: all listed entries.

MOLECULE	pIC50
O=C(O)[C@H](Cc1ccccc1)NC(=O)[C@H]1Cc2ccc(cc2)NC(=O)[C@H](O)[C@@H](O)C(=O)N[C@@H](Cc2cccs2)C(=O)N[C@H](Cc2ccc(-c3ccccc3)cc2)C(=O)N[C@@H](CCc2ccccc2)C(=O)N1	> 5.00
C[C@H](NC(=O)[C@@H]1Cc2ccc(cc2)NC(=O)CCC(=O)N[C@H](Cc2cccs2)C(=O)N[C@@H](Cc2ccc(-c3ccccc3)cc2)C(=O)N[C@H](CCc2ccccc2)C(=O)N1)C(=O)O [Compound 447] ([d2Thi][Bip][d(hPhe)][Phe(4-NH2)]A-OH; linker N-4 via Suc)	< 4.00
O=C1COc2ccc(cc2)C[C@@H](C(=O)O)NC(=O)[C@@H](CCc2ccccc2)NC(=O)[C@H](Cc2ccc(C(F)(F)F)cc2)NC(=O)[C@@H](CCc2ccccc2)N1	4.00 to 4.52
N[C@H]1CNC(=O)c2ccc(cc2)C[C@@H](C(=O)O)NC(=O)[C@@H](Cc2ccccc2)NC(=O)[C@H](Cc2ccc(-c3ccccc3)cc2)NC(=O)[C@@H](CCc2ccccc2)NC1=O [Compound 265] (H-[Dap][d(hPhe)][Bip][dF][Phe(4-COOH)]-OH; lactam 1-5)	< 4.00

====

# ASSAYED_TARGET: TNFα / TNFα receptor (TNFα R1/Fc) (Homo sapiens)
# Construct: purchased R&D Systems
# PROCEDURE_SUMMARY: Inhibition of binding of TNFα to the TNFα receptor (plate ELISA competition)
# REPORTED_CONDITIONS: Table 2; read-out: Activity (IC50, inhibition of TNFα binding to TNFα R1/Fc)
Numbered stars: 1 amine (or outer) side, 2 acyl side, 3 side chain; on linkers, the order of the positions; unused ones are H or OH. Bridge positions count the residues as written; N and C are the ends. Square brackets hold non-standard residues; d marks the D form. Peptide text beside a SMILES is read from it. Bip = N[C@@H](Cc1ccc(-c2ccccc2)cc1)C(=O)O; Phe(4-NH2) = Nc1ccc(C[C@H](N)C(=O)O)cc1; d2Thi = N[C@H](Cc1cccs1)C(=O)O; Suc = O=C(CCC(=O)[*:2])[*:1]

MOLECULE	ASSAYED_TARGET	IC50
O=C(O)[C@H](Cc1ccccc1)NC(=O)[C@@H]1Cc2ccc(cc2)NC(=O)[C@H](O)[C@@H](O)C(=O)N[C@H](Cc2ccc(F)c(F)c2)C(=O)N[C@@H](Cc2ccc(-c3ccccc3)cc2)C(=O)N[C@H](Cc2ccccc2)C(=O)N1	TNFα / TNFα receptor (TNFα R1/Fc) (Homo sapiens)	< 10 µM
O=C1CCC(=O)N[C@H](CCc2ccccc2)C(=O)N[C@@H](Cc2ccc(-c3ccccc3)cc2)C(=O)N[C@H](Cc2ccccc2)C(=O)Nc2ccc(cc2)C[C@@H](C(=O)O)N1	TNFα / TNFα receptor (TNFα R1/Fc) (Homo sapiens)	30 to 100 µM
O=C(O)[C@@H]1Cc2ccc(cc2)NC(=O)[C@H](O)[C@@H](O)C(=O)N[C@H](Cc2cccs2)C(=O)N[C@@H](Cc2ccc(OCc3ccccc3)cc2)C(=O)N[C@H](Cc2ccccc2)C(=O)N1	TNFα / TNFα receptor (TNFα R1/Fc) (Homo sapiens)	30 to 100 µM
O=C(O)C[C@H]1NC(=O)[C@H](Cc2ccc(-c3ccccc3)cc2)NC(=O)[C@@H](Cc2cccs2)NC(=O)CCC(=O)Nc2ccc(cc2)C[C@@H](C(=O)O)NC1=O [Compound 65] ([d2Thi][Bip][dD][Phe(4-NH2)]-OH; linker N-4 via Suc)	TNFα / TNFα receptor (TNFα R1/Fc) (Homo sapiens)	> 100 µM
